# Test system: K. pneumoniae KPC-2
# Measurement protocol: CLSI broth dilution MIC determination
# Format: cell-based
# Stated conditions: Gram-negative
Overview of reported MIC across a group of compounds:
Measure name: MIC

compound="CC[C@H]1OC(=O)[C@H](C)[C@@H](O[C@H]2C[C@@](C)(OC)[C@@H](O)[C@H](C)O2)[C@H](C)[C@@H](O[C@@H]2O[C@H](C)C[C@H](N(C)C)[C@H]2O)[C@](C)(O)C[C@@H](C)CN(C)[C@H](C)[C@@H](O)[C@]1(C)O [Azithro, azithromycin, reference compound]" recorded_result="> 32 µg/mL"
compound="CC[C@H]1OC(=O)[C@@](C)(F)C(=O)[C@H](C)[C@@H](O[C@@H]2OC(C)CC(N(C)C)C2O)[C@](C)(OC)C[C@@H](C)C(=O)[C@H](C)[C@H]2N(C/C=C\\Cn3cc(-c4cccc(N)c4)nn3)C(=O)O[C@]12C (stereo partly shown)" recorded_result="> 32 µg/mL"
compound="CC[C@H]1OC(=O)[C@@](C)(F)C(=O)[C@H](C)[C@@H](OC2OC(C)CC(N(C)C)C2O)[C@](C)(OC)C[C@@H](C)C(=O)[C@H](C)[C@H]2N(CCCCn3cc(-c4cccc(N)c4)nn3)C(=O)O[C@]12C (stereo partly shown) [Solithro, solithromycin, reference compound]" recorded_result="> 32 µg/mL"
compound="CC[C@H]1OC(=O)[C@H](C)C(=O)[C@H](C)[C@@H](O[C@@H]2OC(C)CC(N(C)C)C2O)[C@](C)(OC)C[C@@H](C)C(=O)[C@H](C)[C@H]2N(C/C=C/Cn3cc(-c4nccs4)nn3)C(=O)O[C@]12C (stereo partly shown)" recorded_result="> 32 µg/mL"

====

# Tested on: S. aureus MP-17 ATCCBAA-977 (BAA 977 iErm)
# Measurement protocol: CLSI broth dilution MIC determination
# Format: cell-based
# Stated conditions: Staphylococcus aureus; S. aureus MP-17, ATCCBAA-977, iErm; read-out: MIC
# Source text: MIC data was collected for the novel macrolides that this platform has produced against over 21 unique strains of B. subtilis, E. coli, S. aureus, S. pneumoniae, and H. influenzae, including several multidrug-resistant strains, with a special focus on macrolide resistant mechanisms (vide supra). Azithromycin (Azithro) and Solithromycin (Solithro) were included as a control macrolides in many cases. CLSI standard procedures for broth dilution MIC determination were used. […]
Measure name: log10 of MIC (log10 of the value in µg/mL)

compound="CC[C@H]1OC(=O)[C@H](C)C(=O)[C@H](C)[C@@H](O[C@@H]2OC(C)CC(N(C)C)C2O)[C@](C)(OC)C[C@@H](C)C(=O)[C@H](C)[C@H]2N(CC#CCn3cc(-c4cc(F)ccn4)nn3)C(=O)O[C@]12C (some centres unmarked) [FSM-100566]" recorded_result=-1.22
compound="CC[C@H]1OC(=O)[C@@](C)(F)C(=O)[C@H](C)[C@@H](O[C@@H]2OC(C)CC(N(C)C)C2O)[C@](C)(OC)C[C@@H](C)C(=O)[C@H](C)[C@H]2N(CC#CCn3cc(-c4cccc(N)n4)nn3)C(=O)O[C@]12C (some centres unmarked) [FSM-100573]" recorded_result=-1.22
compound="CC[C@H]1OC(=O)[C@@](C)(F)C(=O)[C@H](C)[C@@H](O[C@@H]2OC(C)CC(N(C)C)C2O)[C@](C)(OC)C[C@@H](C)C(=O)[C@H](C)[C@H]2N(CC#CCn3cc(-c4nccc(N)n4)nn3)C(=O)O[C@]12C (some centres unmarked) [FSM-22749]" recorded_result=0.30
compound="CC[C@H]1OC(=O)[C@@](C)(F)C(=O)[C@H](C)[C@@H](O[C@@H]2OC(C)CC(N(C)C)C2O)[C@](C)(OC)C[C@@H](C)C(=O)[C@H](C)[C@H]2N(CC#CCn3cc(-c4cnc(N)s4)nn3)C(=O)O[C@]12C (some centres unmarked) [FSM-100633]" recorded_result=-0.90
compound="CC[C@H]1OC(=O)[C@@](C)(F)C(=O)[C@H](C)[C@@H](O[C@@H]2OC(C)CC(N(C)C)C2O)[C@](C)(OC)C[C@@H](C)C(=O)[C@H](C)[C@H]2N(CC#CCn3cc(-c4cc(F)ccn4)nn3)C(=O)O[C@]12C (some centres unmarked) [FSM-100563]" recorded_result=-1.22
compound="CC[C@H]1OC(=O)[C@@](C)(F)C(=O)[C@H](C)[C@@H](O[C@@H]2OC(C)CC(N(C)C)C2O)[C@](C)(OC)C[C@@H](C)C(=O)[C@H](C)[C@H]2N(CC#CCn3cc(-c4ccnc(N)n4)nn3)C(=O)O[C@]12C (some centres unmarked) [FSM-22748]" recorded_result=-0.60
compound="CC[C@H]1OC(=O)[C@@](C)(F)C(=O)[C@H](C)[C@@H](O[C@@H]2OC(C)CC(N(C)C)C2O)[C@](C)(OC)C[C@@H](C)C(=O)[C@H](C)[C@H]2N(CC#CCn3cc(-c4cc(N)nc(N)n4)nn3)C(=O)O[C@]12C (some centres unmarked) [FSM-22742]" recorded_result=0.00
compound="CC[C@H]1OC(=O)[C@H](C)C(=O)[C@H](C)[C@@H](O[C@@H]2OC(C)CC(N(C)C)C2O)[C@](C)(OC)C[C@@H](C)C(=O)[C@H](C)[C@H]2N(NC/C=C/c3ccnc4ccccc34)C(=O)O[C@]12C (some centres unmarked) [FSM-140135]" recorded_result=0.30
